Test system: MS2 coat protein
assayText: apparent KD of MS2 coat protein; designed switch direction (-1 OFF switch, 1 ON switch): -1; higher = weaker reporter binding
testParameters: input ligand: FMN 200 uM
# Lookup of reported apparent KD of MS2 coat protein keyed by entry

sequenceRecord	assayedSystem	apparent KD of MS2 coat protein (nM)
AGCCUCUAAGGAUAUACAUGAGGAUCACCCAUGUACUUAGAAGGGAAACCUUCUAUAUGUAGAAGGUAGAAGCA [Exclusion 3 S1] (Eterna round: R97, puzzle: Exclusion 3)	MS2 coat protein	16
AGCAGACGAGGAUAUAAAUGAUAUAACAUGAGGAUCACCCAUGUACGAUCGAAUGAUCGUUUAGAAGGCGUCUGCU [E5/11-A1] (Eterna round: R97, puzzle: Exclusion 5)	MS2 coat protein	16.5
AUCAUAACCUAGGAUAUGUAGCAGCCCGCAGCGACAGAAGGAGGUACAUGAGGAUCACCCAUGUCCACUCCCGU [EX6 C.11] (Eterna round: R97, puzzle: Exclusion 6)	MS2 coat protein	12.4
GGUUUGCGGCAGGAUAUCCAUCCGCGGUAUGGUGGAGAAGGGCUGACAUGAGGAUCACCCAUGUGCGUCCUAGG [salish99_ex6_r4_018] (Eterna round: R97, puzzle: Exclusion 6)	MS2 coat protein	24.6
UCGUUCCGUGUAGGAUAUUGGCCUUCCCUGGGCCGAGAAGGACAUGAGGAUCACCCAUGUAUGUUAUUAUCGCGCGUGGCGCAU [Design 86] (Eterna round: R96, puzzle: Exclusion NG 1)	MS2 coat protein	73.9
AGCGCGUUCUAGGAUAUCCGGUGGGACACAUACGGAGAAGGAGAAACAUGAGGAUCACCCAUGUAUGGAGAUCG [Eternabot (L1) Solution 7] (Eterna round: R97, puzzle: Exclusion 6)	MS2 coat protein	309
GAUCUAGGUGUCAGGAUAUGUAGCUAGGUAAGCAGACAGAAGGGACAUGAGGAUCACCCAUGUCGCAAAUUAAU [Gezadi] (Eterna round: R97, puzzle: Brourd's mod of Exclusion 4)	MS2 coat protein	86
CUCUUGGCAGGAUAUGCUCUCUUAGACAUGAGGAUCACCCAUGUGUUCAUUCUUUCUUUUGCAGAAGGGCCUUAAC [JR_E5_Sub046] (Eterna round: R96, puzzle: Exclusion 5)	MS2 coat protein	128
GGUCGACAUGAGGAUCACCCAUGUCAGGAUAUCGUCACUGGAGCUUCGGCUCCAGUGACGAGAAGGGAUAUGAU [E1/17-A1] (Eterna round: R97, puzzle: Exclusion 1)	MS2 coat protein	39.1
UGUAGUUCAGGAUAUGAUGUUUAAUACAUGAGGAUCACCCAUGUAGAUCCUGAAUUUACAUCAGAAGGGAAUAUUU [JL-ex5-4.57 Brourd mod] (Eterna round: R97, puzzle: Exclusion 5)	MS2 coat protein	17.3
UAGGCACCUGCAGGAUAUUAGAGGCGCUUUCUGUAAGAAGGGCAGGUUCACAUGAGGAUCACCCAUGUAAAGAACAGCAUGGCA [Eternabot solution 24] (Eterna round: R96, puzzle: Exclusion NG 1)	MS2 coat protein	23.1
ACAUGAGGAUCACCCAUGUGGACGAAAAGGCUCAUGUAGAGUGAGGAUAUGUGAGACGAACGAGAACAGAAGGCACAAGACAGG [Deportation 5 - Jieux - Exclusion NG 3] (Eterna round: R96, puzzle: Exclusion NG 3)	MS2 coat protein	17.4
GGAGGACGAGCAGGAUAUUUUCACAUGAGGAUCACCCAUGUGUAAUCAGGGUAAUCCUCCGCCGAAAAGAAGGGUUCGGAAUAA [Mat - Exclusion NG 2 - Mod of JL - D82] (Eterna round: R96, puzzle: Exclusion NG 2)	MS2 coat protein	60
CUGCUCCGUGUAGGAUAUGCAUACUCCCAUUAUGCAGAAGGACAUGAGGAUCACCCAUGUAUGUUAUUAUCACGUGUAGCGUAC [Design 15] (Eterna round: R96, puzzle: Exclusion NG 1)	MS2 coat protein	104
UGAGUGCUGCGAGGAUAUACAUGAGGAUCACCCAUGUGGAUGUCUGAGGCUUUGCCUCAGACAAUGUAGAAGGCGCAGUACUCU [JL ENG2 1.21] (Eterna round: R96, puzzle: Exclusion NG 2)	MS2 coat protein	96.4
GUCAGGAAUGUAGGAUAUCUGCACGAUUAGUGCAGAGAAGGACAUGAGGAUCACCCAUGUAUAGUAGCUUCGGCUACACCUGAC [ENG1-A1] (Eterna round: R96, puzzle: Exclusion NG 1)	MS2 coat protein	16.7
AGUACUAUCACGAAAGUGAUAGUACAAUAAGCUUGUGAAACAUGAGGAUCACCCAUGUCCUCAUAAGCUCGUCUUAU [JL turnoff v2 77] (Eterna round: R96, puzzle: Sensor v2, turn-off variant 2)	MS2 coat protein	16.1
ACAUGAGGAUCACCCAUGUGACCACGAUGGCUGAUGUAGACCUAGGAUAUGUGUGAAUAUCUAUCACAGAAGGAGGUUGACUGG [Deportation 51 - Jieux - Exclusion NG 3] (Eterna round: R96, puzzle: Exclusion NG 3)	MS2 coat protein	44.4
